Target: UniProtKB Q13107
Sequence (Q13107 1-963): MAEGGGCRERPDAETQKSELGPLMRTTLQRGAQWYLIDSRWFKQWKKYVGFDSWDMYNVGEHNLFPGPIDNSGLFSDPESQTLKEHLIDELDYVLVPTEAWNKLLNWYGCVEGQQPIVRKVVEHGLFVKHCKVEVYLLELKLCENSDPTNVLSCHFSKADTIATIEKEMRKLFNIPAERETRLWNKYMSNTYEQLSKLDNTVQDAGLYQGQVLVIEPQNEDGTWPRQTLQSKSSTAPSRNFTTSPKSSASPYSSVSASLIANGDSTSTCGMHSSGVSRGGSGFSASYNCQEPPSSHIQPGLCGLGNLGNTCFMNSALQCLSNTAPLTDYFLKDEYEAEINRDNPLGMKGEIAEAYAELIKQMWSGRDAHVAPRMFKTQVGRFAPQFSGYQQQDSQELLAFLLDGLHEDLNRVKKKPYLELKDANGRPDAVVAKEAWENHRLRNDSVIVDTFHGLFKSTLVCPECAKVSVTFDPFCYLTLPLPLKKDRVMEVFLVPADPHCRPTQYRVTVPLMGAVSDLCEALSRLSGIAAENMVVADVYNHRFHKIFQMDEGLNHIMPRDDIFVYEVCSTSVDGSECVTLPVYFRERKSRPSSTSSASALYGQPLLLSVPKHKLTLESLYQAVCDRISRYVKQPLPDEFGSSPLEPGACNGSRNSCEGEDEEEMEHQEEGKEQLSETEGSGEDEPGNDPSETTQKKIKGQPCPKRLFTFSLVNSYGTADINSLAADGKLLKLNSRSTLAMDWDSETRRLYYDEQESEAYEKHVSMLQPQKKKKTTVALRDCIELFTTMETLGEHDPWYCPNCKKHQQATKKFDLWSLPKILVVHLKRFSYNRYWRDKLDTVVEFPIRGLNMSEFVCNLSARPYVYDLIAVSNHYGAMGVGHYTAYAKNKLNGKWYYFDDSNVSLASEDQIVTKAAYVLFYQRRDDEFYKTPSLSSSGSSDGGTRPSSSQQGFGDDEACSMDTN
pIC50: −log10 of the molar value.
Reported metric: pIC50

Task: Please look at this compound and report its pIC50: "C[C@@H]1[C@H]2CCN(C(=O)c3ncc(-c4ccnc(C#N)c4)o3)[C@H]2CN1C#N"
Output: < 3.52

* * *

molecular target: USP10 (Homo sapiens, UniProt Q14694)
Reported metric: IC50 (µM)
Numeric only. Scale: µM

Task: Using the record for C[C@@H]1[C@H]2CCN(C(=O)c3ncc(-c4ccnc(C#N)c4)o3)[C@H]2CN1C#N [MTX115325] , state its measured IC50.
Output: 107

* * *

target: USP8 (Homo sapiens); assay: DUB/cathepsin selectivity biochemical assay
pIC50: −log10 of the molar value.
Reported metric: pIC50

Task: Give pIC50; test system USP8 (Homo sapiens); compound C[C@@H]1[C@H]2CCN(C(=O)c3ncc(-c4ccnc(C#N)c4)o3)[C@H]2CN1C#N [MTX115325]
Output: < 3.52

* * *

molecular target: USP2 (Homo sapiens, UniProt O75604); test: DUB/cathepsin selectivity biochemical assay; settings: USP2; read-out: IC50
Sequence (O75604 whole entry, species assumed): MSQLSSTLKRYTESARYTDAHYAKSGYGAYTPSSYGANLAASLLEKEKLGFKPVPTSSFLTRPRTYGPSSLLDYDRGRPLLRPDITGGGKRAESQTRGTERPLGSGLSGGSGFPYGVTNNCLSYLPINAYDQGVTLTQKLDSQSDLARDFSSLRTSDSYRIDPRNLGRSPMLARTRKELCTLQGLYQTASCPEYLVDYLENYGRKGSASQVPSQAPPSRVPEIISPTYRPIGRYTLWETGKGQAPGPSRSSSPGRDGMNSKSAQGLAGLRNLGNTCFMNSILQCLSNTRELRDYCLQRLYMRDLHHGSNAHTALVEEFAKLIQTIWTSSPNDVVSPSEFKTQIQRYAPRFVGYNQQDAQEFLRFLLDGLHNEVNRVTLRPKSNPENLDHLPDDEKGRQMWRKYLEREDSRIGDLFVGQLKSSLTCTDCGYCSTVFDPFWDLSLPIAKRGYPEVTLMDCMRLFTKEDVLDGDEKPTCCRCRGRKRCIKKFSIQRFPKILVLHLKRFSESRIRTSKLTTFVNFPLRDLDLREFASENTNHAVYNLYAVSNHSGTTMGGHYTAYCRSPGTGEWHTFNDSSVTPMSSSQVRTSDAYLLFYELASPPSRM
Reported metric: IC50

Task: Quick one: give measured IC50 for "C[C@@H]1[C@H]2CCN(C(=O)c3ncc(-c4ccnc(C#N)c4)o3)[C@H]2CN1C#N"
Output: 24.9 µM

* * *

molecular target: USP24 (Homo sapiens, UniProt Q9UPU5)
Sequence (Q9UPU5 whole entry, species assumed): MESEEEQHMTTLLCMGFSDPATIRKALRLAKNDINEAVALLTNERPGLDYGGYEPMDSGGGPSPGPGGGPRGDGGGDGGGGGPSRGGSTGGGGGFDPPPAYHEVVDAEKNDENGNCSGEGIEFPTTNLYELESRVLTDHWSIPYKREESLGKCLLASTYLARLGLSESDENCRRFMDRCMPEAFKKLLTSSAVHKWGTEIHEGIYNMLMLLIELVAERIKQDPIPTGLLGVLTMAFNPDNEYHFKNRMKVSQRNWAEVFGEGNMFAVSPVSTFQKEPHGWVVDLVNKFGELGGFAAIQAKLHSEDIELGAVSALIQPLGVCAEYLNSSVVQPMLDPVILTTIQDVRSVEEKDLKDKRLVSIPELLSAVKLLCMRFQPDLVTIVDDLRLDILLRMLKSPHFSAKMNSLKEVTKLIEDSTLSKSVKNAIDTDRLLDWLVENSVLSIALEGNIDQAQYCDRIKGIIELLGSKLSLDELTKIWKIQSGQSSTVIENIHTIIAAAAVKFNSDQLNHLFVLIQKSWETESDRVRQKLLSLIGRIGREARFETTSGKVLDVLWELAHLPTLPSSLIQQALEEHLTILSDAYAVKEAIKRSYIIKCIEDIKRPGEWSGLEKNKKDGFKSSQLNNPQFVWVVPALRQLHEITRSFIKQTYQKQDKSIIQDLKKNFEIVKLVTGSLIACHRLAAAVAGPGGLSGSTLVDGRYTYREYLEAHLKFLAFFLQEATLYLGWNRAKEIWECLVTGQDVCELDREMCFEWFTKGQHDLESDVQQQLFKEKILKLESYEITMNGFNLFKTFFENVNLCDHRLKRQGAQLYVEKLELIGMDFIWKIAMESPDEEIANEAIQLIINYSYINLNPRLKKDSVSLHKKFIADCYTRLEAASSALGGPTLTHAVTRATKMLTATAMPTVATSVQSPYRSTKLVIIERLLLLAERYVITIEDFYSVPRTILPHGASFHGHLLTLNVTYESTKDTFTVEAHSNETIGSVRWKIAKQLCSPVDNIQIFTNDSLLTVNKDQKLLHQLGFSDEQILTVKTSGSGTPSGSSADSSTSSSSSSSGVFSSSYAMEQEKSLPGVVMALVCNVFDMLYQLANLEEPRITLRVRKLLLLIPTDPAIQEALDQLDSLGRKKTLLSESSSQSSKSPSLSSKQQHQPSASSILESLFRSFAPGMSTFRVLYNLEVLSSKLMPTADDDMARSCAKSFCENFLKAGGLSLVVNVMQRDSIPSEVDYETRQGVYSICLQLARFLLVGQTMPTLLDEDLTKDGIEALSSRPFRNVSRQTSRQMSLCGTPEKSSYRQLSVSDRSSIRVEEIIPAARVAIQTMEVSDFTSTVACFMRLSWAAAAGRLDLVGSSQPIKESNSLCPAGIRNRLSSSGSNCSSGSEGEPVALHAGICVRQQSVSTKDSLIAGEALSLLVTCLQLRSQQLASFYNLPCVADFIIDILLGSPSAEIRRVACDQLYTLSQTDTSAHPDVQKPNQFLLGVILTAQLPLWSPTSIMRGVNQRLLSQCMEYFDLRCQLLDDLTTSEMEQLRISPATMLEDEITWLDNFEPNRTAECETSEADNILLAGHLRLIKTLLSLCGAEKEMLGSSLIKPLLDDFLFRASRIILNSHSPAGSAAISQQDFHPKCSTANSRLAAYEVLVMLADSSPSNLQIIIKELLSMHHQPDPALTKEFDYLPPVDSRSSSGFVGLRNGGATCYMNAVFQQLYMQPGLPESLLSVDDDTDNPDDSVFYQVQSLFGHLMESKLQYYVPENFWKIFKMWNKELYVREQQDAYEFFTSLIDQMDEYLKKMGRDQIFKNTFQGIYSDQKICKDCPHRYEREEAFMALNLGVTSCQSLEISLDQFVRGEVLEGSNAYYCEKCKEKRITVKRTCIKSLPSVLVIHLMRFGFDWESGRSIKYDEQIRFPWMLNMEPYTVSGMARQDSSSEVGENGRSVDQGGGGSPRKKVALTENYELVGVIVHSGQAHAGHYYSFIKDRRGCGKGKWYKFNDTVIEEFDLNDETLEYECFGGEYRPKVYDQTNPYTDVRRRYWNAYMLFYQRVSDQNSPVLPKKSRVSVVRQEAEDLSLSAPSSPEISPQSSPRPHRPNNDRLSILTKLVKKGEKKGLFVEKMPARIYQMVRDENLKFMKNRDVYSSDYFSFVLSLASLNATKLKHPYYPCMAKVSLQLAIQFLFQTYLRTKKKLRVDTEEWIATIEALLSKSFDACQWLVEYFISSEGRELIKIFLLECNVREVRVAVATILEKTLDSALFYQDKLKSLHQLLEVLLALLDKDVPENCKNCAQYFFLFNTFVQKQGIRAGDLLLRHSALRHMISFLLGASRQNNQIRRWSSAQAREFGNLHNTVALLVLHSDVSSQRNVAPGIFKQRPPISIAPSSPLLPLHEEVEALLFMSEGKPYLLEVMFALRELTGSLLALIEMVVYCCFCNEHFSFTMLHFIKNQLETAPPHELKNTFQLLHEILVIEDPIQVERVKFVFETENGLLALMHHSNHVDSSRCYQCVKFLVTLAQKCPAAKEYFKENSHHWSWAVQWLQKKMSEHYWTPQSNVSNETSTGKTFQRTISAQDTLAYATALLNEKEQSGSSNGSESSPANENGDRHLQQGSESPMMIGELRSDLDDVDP
Reported metric: IC50

Task: Write down measured IC50 (USP24 (Homo sapiens, UniProt Q9UPU5)) for this compound. C[C@@H]1[C@H]2CCN(C(=O)c3ncc(-c4ccnc(C#N)c4)o3)[C@H]2CN1C#N [MTX115325]
Output: > 300 µM

* * *

target: USP36 CD (Homo sapiens)
Sequence (Q9P275 122-423 limits assumed): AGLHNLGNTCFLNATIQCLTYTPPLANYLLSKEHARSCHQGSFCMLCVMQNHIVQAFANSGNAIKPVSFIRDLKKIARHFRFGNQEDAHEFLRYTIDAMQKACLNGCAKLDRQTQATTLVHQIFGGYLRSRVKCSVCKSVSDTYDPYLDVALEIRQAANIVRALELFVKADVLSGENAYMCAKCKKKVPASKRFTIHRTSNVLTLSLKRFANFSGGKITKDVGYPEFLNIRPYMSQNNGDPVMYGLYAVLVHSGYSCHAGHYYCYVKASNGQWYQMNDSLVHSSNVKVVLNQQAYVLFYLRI
Reported metric: IC50 (µM)
Form entry: value (µM) — number only.

Task: Please give measured IC50 of the following entry: "C[C@@H]1[C@H]2CCN(C(=O)c3ncc(-c4ccnc(C#N)c4)o3)[C@H]2CN1C#N"
Output: 157

* * *

biological target: USP20 (Homo sapiens, UniProt Q9Y2K6)
Sequence (Q9Y2K6 whole entry, species assumed): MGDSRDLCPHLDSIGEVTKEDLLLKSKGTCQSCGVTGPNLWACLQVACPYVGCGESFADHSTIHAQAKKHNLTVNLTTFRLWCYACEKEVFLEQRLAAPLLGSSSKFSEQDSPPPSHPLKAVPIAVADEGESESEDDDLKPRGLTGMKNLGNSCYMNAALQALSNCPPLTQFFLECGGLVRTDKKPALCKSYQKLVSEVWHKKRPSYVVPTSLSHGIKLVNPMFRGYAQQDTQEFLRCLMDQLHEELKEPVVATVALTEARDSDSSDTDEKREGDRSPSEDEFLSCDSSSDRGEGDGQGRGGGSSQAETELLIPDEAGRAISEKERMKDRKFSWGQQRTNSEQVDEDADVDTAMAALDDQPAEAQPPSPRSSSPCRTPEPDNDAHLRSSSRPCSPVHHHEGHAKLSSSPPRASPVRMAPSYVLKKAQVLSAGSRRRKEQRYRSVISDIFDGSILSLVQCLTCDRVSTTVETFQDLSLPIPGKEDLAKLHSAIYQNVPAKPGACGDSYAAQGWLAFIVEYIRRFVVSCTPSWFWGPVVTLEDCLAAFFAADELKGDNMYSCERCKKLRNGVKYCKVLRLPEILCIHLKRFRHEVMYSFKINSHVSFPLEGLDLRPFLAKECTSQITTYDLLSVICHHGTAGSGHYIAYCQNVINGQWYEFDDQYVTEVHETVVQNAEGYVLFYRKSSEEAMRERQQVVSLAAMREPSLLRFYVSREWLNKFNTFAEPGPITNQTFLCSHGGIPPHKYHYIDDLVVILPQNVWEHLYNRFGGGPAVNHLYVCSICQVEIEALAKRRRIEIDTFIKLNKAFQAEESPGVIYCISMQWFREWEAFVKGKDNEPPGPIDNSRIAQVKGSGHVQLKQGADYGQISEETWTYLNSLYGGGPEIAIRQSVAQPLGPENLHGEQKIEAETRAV
Reported metric: IC50

Task: // output IC50; input "C[C@@H]1[C@H]2CCN(C(=O)c3ncc(-c4ccnc(C#N)c4)o3)[C@H]2CN1C#N" ; system USP20 (Homo sapiens, UniProt Q9Y2K6)
Output: > 300 µM

* * *

molecular target: Cathepsin L (Homo sapiens)
Sequence (P07711 114-333, species assumed): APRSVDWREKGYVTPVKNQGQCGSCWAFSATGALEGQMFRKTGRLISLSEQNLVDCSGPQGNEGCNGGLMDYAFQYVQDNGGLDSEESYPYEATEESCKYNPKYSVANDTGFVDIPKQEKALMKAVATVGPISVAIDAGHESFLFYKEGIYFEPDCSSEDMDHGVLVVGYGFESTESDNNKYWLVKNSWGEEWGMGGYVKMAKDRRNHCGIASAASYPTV
Reported metric: IC50 (µM)
The response must be a number in µM with no trailing unit.

Task: System Cathepsin L (Homo sapiens). Read-out IC50. Item "C[C@@H]1[C@H]2CCN(C(=O)c3ncc(-c4ccnc(C#N)c4)o3)[C@H]2CN1C#N" . Report value.
Output: 42.1

* * *

Molecular target: USP47 (Homo sapiens, UniProt Q96K76)
Sequence (Q96K76 1-1375): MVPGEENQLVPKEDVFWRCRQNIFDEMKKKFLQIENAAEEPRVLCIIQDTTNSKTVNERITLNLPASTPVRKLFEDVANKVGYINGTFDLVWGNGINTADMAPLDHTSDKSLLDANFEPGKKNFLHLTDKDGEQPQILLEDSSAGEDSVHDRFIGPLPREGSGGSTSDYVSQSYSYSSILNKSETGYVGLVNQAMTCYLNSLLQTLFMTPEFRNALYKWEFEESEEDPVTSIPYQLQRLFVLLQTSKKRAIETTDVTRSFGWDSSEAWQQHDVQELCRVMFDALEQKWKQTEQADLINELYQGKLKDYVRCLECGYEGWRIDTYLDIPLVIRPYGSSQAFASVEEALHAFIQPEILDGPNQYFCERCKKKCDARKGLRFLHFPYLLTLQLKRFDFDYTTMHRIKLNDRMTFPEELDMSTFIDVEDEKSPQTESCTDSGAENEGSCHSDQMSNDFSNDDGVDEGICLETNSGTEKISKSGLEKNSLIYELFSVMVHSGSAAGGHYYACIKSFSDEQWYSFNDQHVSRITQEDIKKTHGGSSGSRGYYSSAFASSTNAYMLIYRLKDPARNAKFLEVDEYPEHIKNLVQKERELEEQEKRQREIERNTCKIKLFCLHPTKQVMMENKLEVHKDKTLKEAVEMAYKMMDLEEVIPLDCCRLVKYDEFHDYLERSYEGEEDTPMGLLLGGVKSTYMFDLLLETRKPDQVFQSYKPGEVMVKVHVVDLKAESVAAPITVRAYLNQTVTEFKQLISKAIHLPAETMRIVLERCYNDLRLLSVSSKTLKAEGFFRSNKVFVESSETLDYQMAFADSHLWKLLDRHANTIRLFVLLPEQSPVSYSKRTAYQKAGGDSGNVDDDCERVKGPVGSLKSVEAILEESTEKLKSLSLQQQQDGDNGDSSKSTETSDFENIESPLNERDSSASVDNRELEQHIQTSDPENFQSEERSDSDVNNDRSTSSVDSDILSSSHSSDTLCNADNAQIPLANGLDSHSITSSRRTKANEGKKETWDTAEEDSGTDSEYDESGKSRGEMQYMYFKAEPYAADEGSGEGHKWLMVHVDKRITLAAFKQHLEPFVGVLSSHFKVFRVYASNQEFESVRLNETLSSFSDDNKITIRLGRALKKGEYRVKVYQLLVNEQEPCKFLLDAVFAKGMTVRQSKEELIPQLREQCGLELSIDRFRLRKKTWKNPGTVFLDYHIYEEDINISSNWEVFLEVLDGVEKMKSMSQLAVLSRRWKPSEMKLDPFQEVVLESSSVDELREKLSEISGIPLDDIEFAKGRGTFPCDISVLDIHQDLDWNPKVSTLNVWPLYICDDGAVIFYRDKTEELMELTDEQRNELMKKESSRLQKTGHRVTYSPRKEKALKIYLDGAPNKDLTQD
Reported metric: IC50 (µM)
Dear colleague, please return just the value in µM, with no unit written.

Task: Fill in IC50 for C[C@@H]1[C@H]2CCN(C(=O)c3ncc(-c4ccnc(C#N)c4)o3)[C@H]2CN1C#N [MTX115325] tested with USP47 (Homo sapiens, UniProt Q96K76).
Output: 212

* * *

molecular target: ATXN3L (Homo sapiens, UniProt Q9H3M9)
Sequence (Q9H3M9 whole entry, species assumed): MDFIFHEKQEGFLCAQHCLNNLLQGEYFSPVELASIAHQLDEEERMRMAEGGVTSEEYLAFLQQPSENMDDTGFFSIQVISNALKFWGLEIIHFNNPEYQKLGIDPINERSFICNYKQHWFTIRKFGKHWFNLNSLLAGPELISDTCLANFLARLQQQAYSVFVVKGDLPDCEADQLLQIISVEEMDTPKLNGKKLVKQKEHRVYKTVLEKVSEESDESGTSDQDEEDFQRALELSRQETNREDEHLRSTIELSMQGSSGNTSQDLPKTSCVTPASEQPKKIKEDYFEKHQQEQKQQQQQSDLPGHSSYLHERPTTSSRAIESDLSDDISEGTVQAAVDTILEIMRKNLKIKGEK
Reported metric: IC50
Field: value (include unit after the number)

Task: Recall the reported IC50 of "C[C@@H]1[C@H]2CCN(C(=O)c3ncc(-c4ccnc(C#N)c4)o3)[C@H]2CN1C#N" on ATXN3L (Homo sapiens, UniProt Q9H3M9) and write it down.
Output: 173 µM

* * *

molecular target: USP32 (Homo sapiens)
Reported metric: IC50 (µM)
// return numeric value only (unit: µM, not printed)

Task: Quote IC50 reported for C[C@@H]1[C@H]2CCN(C(=O)c3ncc(-c4ccnc(C#N)c4)o3)[C@H]2CN1C#N [MTX115325] please.
Output: 120

* * *

Target: USP35 (Homo sapiens, UniProt Q9P2H5)
Sequence (Q9P2H5 1-1018): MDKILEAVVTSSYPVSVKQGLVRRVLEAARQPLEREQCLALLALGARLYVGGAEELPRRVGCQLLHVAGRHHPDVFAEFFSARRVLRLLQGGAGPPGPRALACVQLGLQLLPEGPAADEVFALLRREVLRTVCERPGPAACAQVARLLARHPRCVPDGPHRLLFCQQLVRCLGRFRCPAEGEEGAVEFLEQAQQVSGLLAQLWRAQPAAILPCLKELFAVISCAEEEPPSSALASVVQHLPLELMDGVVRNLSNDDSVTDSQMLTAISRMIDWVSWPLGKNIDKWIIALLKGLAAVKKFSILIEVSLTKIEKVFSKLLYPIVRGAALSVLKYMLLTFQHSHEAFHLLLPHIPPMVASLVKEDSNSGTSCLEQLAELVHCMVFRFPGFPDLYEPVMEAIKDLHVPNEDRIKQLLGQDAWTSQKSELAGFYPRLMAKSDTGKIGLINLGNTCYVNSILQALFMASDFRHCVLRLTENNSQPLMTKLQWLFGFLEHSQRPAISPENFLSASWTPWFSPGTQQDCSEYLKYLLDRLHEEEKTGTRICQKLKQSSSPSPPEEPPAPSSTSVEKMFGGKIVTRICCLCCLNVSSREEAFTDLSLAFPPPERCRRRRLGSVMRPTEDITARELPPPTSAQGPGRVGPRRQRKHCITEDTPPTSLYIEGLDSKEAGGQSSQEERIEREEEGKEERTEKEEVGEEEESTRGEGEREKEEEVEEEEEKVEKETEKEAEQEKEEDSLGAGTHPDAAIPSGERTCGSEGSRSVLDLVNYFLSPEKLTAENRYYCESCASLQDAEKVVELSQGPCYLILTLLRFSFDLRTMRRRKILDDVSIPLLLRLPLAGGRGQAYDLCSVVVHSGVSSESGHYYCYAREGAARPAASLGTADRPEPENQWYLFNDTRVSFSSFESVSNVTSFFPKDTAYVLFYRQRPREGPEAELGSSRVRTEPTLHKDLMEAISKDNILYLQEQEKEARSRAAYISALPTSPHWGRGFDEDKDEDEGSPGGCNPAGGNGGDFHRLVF
pIC50: −log10 of the molar value.
Reported metric: pIC50

Task: GET pIC50 where system = USP35 (Homo sapiens, UniProt Q9P2H5) and item = "C[C@@H]1[C@H]2CCN(C(=O)c3ncc(-c4ccnc(C#N)c4)o3)[C@H]2CN1C#N"
Output: < 3.52
